Experiment: HUVEC growth inhibition – cell-based, human, primary screen (AID 575);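 also: 100% = median of untreated cell wells with 0.1% DMSO on each plate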
Details: HUVEC proliferation, CellTiter-Glo luminescence, 72 h; at 10 µM; stronger effect = lower value
The source made the active and inactive calls.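 The calls were made as follows: active = viability at or below 30% in both replicate assays; inconclusive = viability at or below 30% in just one of the two assays; inactive = the rest.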
Kindly supply the reported viability values for the records listed here.

{"molecule": "Cn1nc(-c2ccc(C(=O)N3CCN(c4ccccc4)CC3)cc2)c2ccccc2c1=O", "viability": "71.2% (inactive)"}
{"molecule": "Cc1ccc(-c2ccc(/C=N/n3cnnc3)o2)cc1Cl", "viability": "87.2% (inactive)"}
{"molecule": "CCNc1ccc2c(Cl)cc(=O)oc2c1", "viability": "68.2% (inactive)"}
{"molecule": "O=C(CN(CC1CCCO1)C(=O)CCC(=O)Nc1ccccn1)NCC1CCCO1 (stereo not drawn)", "viability": "103% (inactive)"}
{"molecule": "CCOc1ccccc1OCCn1nnc2ccccc21", "viability": "101% (inactive)"}

Dear reader, for each entry below, please note its viability.
1. O=C(CCC(=O)N1CCN(S(=O)(=O)c2ccccc2)CC1)c1cccs1
2. CCOC(=O)c1cc2sccc2n1CC(=O)Nc1ccc2c(c1)OCCO2
3. O=c1c2ccccc2nc(-c2cccc(Cl)c2)n1O
4. CC(NS(=O)(=O)c1ccc(OCC(=O)N2CCOCC2)c(Cl)c1)c1ccccc1 (stereo not drawn)
5. Cc1nn(-c2ccccc2)c(Cl)c1C1C(C#N)=C(N)OC2=C1C(=O)CC(C)(C)C2 (stereo not drawn)
6. COC(=O)c1ccccc1NC(=O)c1noc2c1CC(C(C)(C)C)CC2 (stereo not drawn)
7. CCc1c(C(=O)Nc2cc(C)ccc2OC)[nH]c(C)c1C(C)=O

1. 102% (inactive)
2. 87.4% (inactive)
3. 84.6% (inactive)
4. 94.9% (inactive)
5. 49.1% (inactive)
6. 112% (inactive)
7. 45.3% (inactive)

The following molecules each have a reported value; give each one's viability.
1. Cc1cc2c(c(=O)n1CCN(C)C)C(c1ccncc1)C(C#N)=C(N)O2 (stereo not drawn)
2. Nc1nc(Nc2ccc(Cl)cc2Cl)nc(C(F)(F)F)n1
3. COCCCNC(=O)CC(NS(=O)(=O)c1ccc(Cl)cc1)c1ccco1 (stereo not drawn)
4. COC(=O)CN(c1ccc2c(c1)OCO2)S(C)(=O)=O

1. 103% (inactive)
2. 73.9% (inactive)
3. 106% (inactive)
4. 102% (inactive)

Return reported viability values for all items listed beneath this line.
1. Cn1cc(-c2nc3ccccc3[nH]2)c2ccccc21
2. COc1cccc(NC(=O)C2CCN(c3ncccn3)CC2)c1

1. 81% (inactive)
2. 90% (inactive)

Batch request: viability for each of the following molecules.
1. COc1cccc(-c2csc3nc[nH]c(=O)c23)c1
2. CCOC(=O)c1nnn(-c2nonc2NC(C)=O)c1C
3. O=C(c1nc2n(n1)C(c1ccc(Cl)cc1)C=C(c1ccccc1)N2)N1CCOCC1 (stereo not drawn)

1: 92.6% (inactive); 2: 91.7% (inactive); 3: 96.9% (inactive)

Items follow; give viability for each.
1. COc1cc(-n2nc(C)c3c2OC(N)=C(C#N)C3c2ccccc2)c(Cl)c(Br)c1O (stereo not drawn)
2. O=C(NCCc1ccccc1)c1cc(-c2ccco2)on1

["50% (inactive)", "81.3% (inactive)"]

* * *

Test: H69AR cell proliferation blockers – human, duplicate replicates, primary screen (AID 580);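 also: 100% = mean luminescence of untreated wells and 0% = no signal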
Conditions: H69AR lung tumor cells viability, ATP luminescence, 72 h; at 10 µM; stronger effect = lower value
measurement type: viability (%)
Give bare numbers, in %.

Look over these answered cases.
{"compound": "Cc1ccccc1CN1CCN(C(=O)c2cccc(F)c2)CC1", "number": 101}
{"compound": "COc1cccc(-c2csc3nc[nH]c(=O)c23)c1", "number": 86.7}
{"compound": "CC(NS(=O)(=O)c1ccc(OCC(=O)N2CCOCC2)c(Cl)c1)c1ccccc1 (stereo not drawn)", "number": 94.7}
{"compound": "COc1ccc(OC(C)C(=O)N2CCN(c3ccccn3)CC2)cc1 (stereo not drawn)", "number": 94.4}

// input: 6 compounds below; output: viability for each
1. O=C(CSc1nnc(-c2ccccc2)o1)N1CCc2ccccc2C1
2. Cc1cc(C)c(OCC(=O)Nc2cccc(O)c2)cc1C
3. Cc1nc2ccccc2c(=O)n1NC(=O)c1ccc(F)cc1Cl
4. COC(=O)CN1C(=O)C2(C(C#N)=C(N)Oc3c2c(C)nn3-c2ccccc2)c2ccccc21 (stereo not drawn)
5. O=C(Nc1cc(C(F)(F)F)ccc1Cl)C1CCN(c2nnc(-n3cccc3)s2)CC1
6. O=C(NCCN1CCCC1)C1COc2ccccc2O1 (stereo not drawn)

1. 93.1
2. 101
3. 94.2
4. 67.8
5. 70.9
6. 95.7

Please look at the items below and tell me viability for each one, in order.
1. CCNc1ccc2c(Cl)cc(=O)oc2c1
2. COc1ccc(CCNS(=O)(=O)c2ccc(C(=O)NCc3ccco3)cc2)cc1OC

1. 79.8
2. 80.9

For every item in the list below, what is its measured viability?
1. CCOC(=O)c1nnn(-c2nonc2NC(C)=O)c1C
2. Cc1ccc(C(=O)Nc2ccc3c(c2)OCO3)o1
3. O=C(CN(CC1CCCO1)C(=O)CCC(=O)Nc1ccccn1)NCC1CCCO1 (stereo not drawn)
4. CN(Cc1nc(-c2ccncc2)no1)S(=O)(=O)c1ccc(Br)cc1

1. 98.2
2. 69.6
3. 100
4. 89.6
